- TEST PROTOCOL: physchem
- ASSAY CONDITIONS: organic solvent or mixture
PROPERTY: solubility

Q: Recorded solubility of O=C(O)c1cccc(NC(=O)c2cccc3c2C(=O)c2ccccc2-3)c1 , please.
Result: ≥ 100 mM

---

- Tested on: Cholera toxin (CT)
- ASSAY CONDITIONS: mouse, in vivo
PROPERTY: Toxicity

                                   compound  recorded_result
0  COc1cccc(C2=CC(=O)CC(c3ccco3)C2)c1 (stereo not shown) [FI-1]              Yes
1  O=C(O)c1cccc(NC(=O)c2cccc3c2C(=O)c2ccccc2-3)c1 [FIV-50]               No
2  COc1cccc([C@H]2Nc3ccc(C(=O)O)cc3[C@@H]3C=CC[C@H]23)c1 (stereo in doubt) [FII-1]               No
3  COc1cccc(C2=CC(=O)CC(c3ccc(F)cc3)C2)c1 (stereo not shown) [FI-2]               No

---

- ASSAYED SYSTEM: anthrax edema factor (EF) (Bacillus anthracis, UniProt P40136)
- Sequence (P40136 whole entry, looked up): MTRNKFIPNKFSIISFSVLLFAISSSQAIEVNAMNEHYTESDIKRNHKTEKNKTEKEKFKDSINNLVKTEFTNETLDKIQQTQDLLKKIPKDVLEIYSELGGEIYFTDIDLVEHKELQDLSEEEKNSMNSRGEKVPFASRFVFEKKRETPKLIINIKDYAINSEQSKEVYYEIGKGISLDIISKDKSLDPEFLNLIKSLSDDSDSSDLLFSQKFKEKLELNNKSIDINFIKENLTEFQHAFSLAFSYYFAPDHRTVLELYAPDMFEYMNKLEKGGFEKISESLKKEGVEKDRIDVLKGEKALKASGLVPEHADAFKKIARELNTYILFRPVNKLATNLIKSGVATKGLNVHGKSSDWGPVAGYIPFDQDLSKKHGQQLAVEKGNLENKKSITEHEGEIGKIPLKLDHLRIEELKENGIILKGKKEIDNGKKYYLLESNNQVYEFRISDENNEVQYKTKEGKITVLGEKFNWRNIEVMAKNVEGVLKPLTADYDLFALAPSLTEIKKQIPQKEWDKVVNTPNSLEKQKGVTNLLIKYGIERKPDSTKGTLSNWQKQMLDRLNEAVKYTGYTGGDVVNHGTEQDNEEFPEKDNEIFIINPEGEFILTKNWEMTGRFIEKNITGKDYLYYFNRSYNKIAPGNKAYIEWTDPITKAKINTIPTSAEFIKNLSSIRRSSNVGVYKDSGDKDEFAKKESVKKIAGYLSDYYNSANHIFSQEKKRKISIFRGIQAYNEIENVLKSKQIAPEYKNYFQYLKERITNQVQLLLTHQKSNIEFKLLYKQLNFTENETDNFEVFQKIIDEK
- TEST PROTOCOL: cell-based
- ASSAY CONDITIONS: read-out: IC-50
With a cut-off of 30 µM, any IC50 strictly below it is called criterion met; any IC50 meeting it or above is called criterion not met.

Below, 2 molecules whose answers are already recorded.
>>> print(df.to_string())
                                   molecule     assigned_label
0  O=C1C=C(c2ccc3c(c2)OCO3)CCC1 [FI-18, 3-Benzo[1,3]dioxol-5-yl-cyclohex-2-enone]  criterion not met
1                   COc1ccccc1C1=CC(=O)CCC1  criterion not met

Q: Criterion: IC50 strictly below 30 µM. Is it met by O=C1C=C(c2ccc3[nH]ccc3c2)CCC1 ?
Result: criterion not met

Q: Let us now turn to COc1ccc(C2=C(C)C(=O)CC2)cn1
Result: criterion met

---

- ASSAYED SYSTEM: UniProtKB P40136
- TEST PROTOCOL: cell-based
- ASSAY CONDITIONS: IC50 values
PROPERTY: IC50

                                   compound  recorded_result
0  O=C(O)c1cccc(NC(=O)c2cccc3c2C(=O)c2ccccc2-3)c1      1.7 to 5 µM

Kindly review the next compound as well.
Q: Recorded IC50 of COc1cccc([C@H]2Nc3ccc(C(=O)O)cc3[C@@H]3C=CC[C@H]23)c1 (stereo in doubt) , please.
Result: 1.8 to 7 µM

---

- ASSAYED SYSTEM: anthrax edema factor (EF) (Bacillus anthracis, UniProt P40136)
- TEST PROTOCOL: cell-based
- ASSAY CONDITIONS: IC50 values, mean
PROPERTY: pIC50
Notebook: values listed as pIC50 are -log10 of the concentration (mol/L).

Q: Recorded pIC50 of O=C(O)c1cccc(NC(=O)c2cccc3c2C(=O)c2ccccc2-3)c1 , please.
Result: 5.32

---

- ASSAYED SYSTEM: anthrax edema factor (EF) (Bacillus anthracis)
- TEST PROTOCOL: cell-based
- ASSAY CONDITIONS: read-out: Selected assay results (IC50)
PROPERTY: pIC50
Notebook: values listed as pIC50 are -log10 of the concentration (mol/L).

Q: Recorded pIC50 of COc1cccc(C2=C(C)C(=O)CC2)n1 [FI-3] , please.
Result: 4.53
